- system tested: GRASP, Q7Z6J2
- Sequence (Q7Z6J2 96-193): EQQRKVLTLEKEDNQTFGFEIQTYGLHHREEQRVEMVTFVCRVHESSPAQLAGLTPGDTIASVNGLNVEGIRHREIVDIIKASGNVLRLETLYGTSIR
- test name: holdup assay
- Design: key: below the threshold = too weak to quantify, mostly under pKd 3.1 to 4
- assay context: plain residues with an end cap or a label only (N-terminal biotin on a linker: ado-ado)
property label: pKd

Examples with their reported pKd follow.
VDSTVKVWTC [TRAF7, Q6Q0C0]	3.85
GQEEQVTTRL [TRPC5, Q9UL62]	4.63
TLPRKRMSSI [GPRC6A, Q5T6X5]	below the threshold
VYPNAKVELV [PDLIM4_iso2, P50479;P50479-1]	below the threshold
LGRSTPQSEV [DGKH, Q86XP1]	3.51
QMNQTLPVQV [EPHB3, P54753]	below the threshold
TACCHSETVV [TGFA, P01135]	3.5

**Query** Form field: reported pKd of TSSMRGMDAV [RSRC2, Q7L4I2]
**Result** below the threshold
